- subject-of-test: IP3K-KD (human IP3K-KD A isoform, residues 187–461) (Homo sapiens)
- Construct: human IP3K-KD A isoform (residues 187–461); GST (cleaved yes); made in house; host or cells: Escherichia coli BL21 star (DE3)
- Sequence (P23677 187-461): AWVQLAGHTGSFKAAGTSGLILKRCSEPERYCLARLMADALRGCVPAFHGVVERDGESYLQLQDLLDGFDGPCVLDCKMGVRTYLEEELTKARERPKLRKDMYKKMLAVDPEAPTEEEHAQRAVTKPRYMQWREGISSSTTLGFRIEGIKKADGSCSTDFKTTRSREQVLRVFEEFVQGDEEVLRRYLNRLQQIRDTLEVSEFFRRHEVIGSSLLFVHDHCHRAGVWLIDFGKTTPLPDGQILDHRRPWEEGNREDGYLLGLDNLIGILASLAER
- assay-protocol: Fluorescence thermal shift analysis (Tycho NT.6, inflection temperature Ti)
- Assay type: binding
- condition-description: source data of Fig. 6c, N 3
Below, each entry is listed with its recorded Transition 1 Dti (Ti-Ti Apo).
Reply with the value as a number alone.

1. CO[C@@H]1O[C@H](CO)[C@@H](O[C@H]2[C@H](O)[C@H](O)[C@@H](OP(=O)(O)O)[C@H](OP(=O)(O)O)[C@H]2O)[C@H]1OP(=O)(O)O [compound 9, D-chiro-inositol ribophostin]; 0.133
2. O=P(O)(O)O[C@@H]1[C@H](O)[C@H](O)[C@@H](OP(=O)(O)O)[C@H](OP(=O)(O)O)[C@H]1O [InsP3, D-myo-inositol 1,4,5-trisphosphate, reference compound]; 8.5

Need Transition 1 Dti (Ti-Ti Apo) of O=P(O)(O)OCC1C(O)C(OP(=O)(O)O)C(O)C(OP(=O)(O)O)C1OP(=O)(O)O (racemic) [5-p] , thanks.
7.7
